All figures here come from paper PMC4460047.

Below, each entry is listed with its recorded concentration at 120 min.
Experiment: Plasma levels after oral administration to Wistar rats
Assay type: in vivo, rat
Details: male, rat, plasma, po; p.o. 145 mg kg-1, Wistar rats, mean ± SEM, n = 9; read-out: Prodrug Conc in plasma, 120 min
measured quantity: concentration at 120 min

> print(dat)
                           substance.smiles         measured.quantity  reported
1  CCCCCCCCCCCCCCCC(=O)NCCOC(=O)[C@H](N)C(C)C.Cl  concentration at 120 min   56.4 nM
2  CCCCCCCCCCCCCCCC(=O)NCCOC(=O)[C@@H](N)C(C)C.Cl  concentration at 120 min   22.2 nM

* * *

Experiment: Plasma levels after oral administration to Wistar rats
Format: in vivo, rat
Conditions: male, rat, plasma, po; p.o. 145 mg kg-1, Wistar rats, mean ± SEM, n = 9; read-out: Prodrug Conc in plasma, 360 min
Procedure: Twenty-seven male Wistar rats (Charles River Laboratories, Italy), 150–250 g in weight, were used in the study. Number of animals was calculated by G-power a priori analysis (α = 0.05 and β = 0.05). Animals were housed in group in policarbonate cages (Tecniplast, Italy) in a conventional facility with controlled temperature 22±1°C, a relative humidity of 55±5%, and a 12 h light/dark cycle (6:00 am to 6:00 pm). […]
measured quantity: concentration at 360 min

> print(dat)
                           substance.smiles  reported
1  CCCCCCCCCCCCCCCC(=O)NCCOC(=O)[C@H](N)C(C)C.Cl   11.4 nM
2  CCCCCCCCCCCCCCCC(=O)NCCOC(=O)[C@@H](N)C(C)C.Cl    2.7 nM

* * *

Experiment: Chemical stability in phosphate buffered saline pH 7.4
Type: physicochemical
Settings: percent remaining after 6 h of incubation at 37°C in PBS buffer pH 7.4
measured quantity: %Compd at 6 h, pH 7.4 (%)

> print(dat)
                           substance.smiles      measured.quantity  reported
1  CCCCCCCCCCCCCCCC(=O)NCCOC(=O)OCOC(=O)C1CCCCC1  %Compd at 6 h, pH 7.4        84
2  CCCCCCCCCCCCCCCC(=O)NCCOC(=O)C[C@H](N)C(=O)O.Cl  %Compd at 6 h, pH 7.4        83
3  CCCCCCCCCCCCCCCC(=O)NCCOC(=O)[C@H](C)N.Cl  %Compd at 6 h, pH 7.4        64
4  CCCCCCCCCCCCCCCC(=O)NCCOC(=O)[C@@H](N)CCC(N)=O.Cl  %Compd at 6 h, pH 7.4        61
5  CCCCCCCCCCCCCCCC(=O)NCCOC(=O)[C@@H](N)C(C)C.Cl  %Compd at 6 h, pH 7.4        91
6  CCCCCCCCCCCCCCCC(=O)NCCOC(=O)[C@H](N)CC(N)=O.Cl  %Compd at 6 h, pH 7.4       3.5
7  CCCCCCCCCCCCCCCC(=O)NCCOC(=O)[C@@H](N)[C@@H](C)CC.Cl  %Compd at 6 h, pH 7.4       103
8  CCCCCCCCCCCCCCCC(=O)NCCOC(=O)[C@H](N)C(C)C.Cl  %Compd at 6 h, pH 7.4        87
9  CCCCCCCCCCCCCCCC(=O)NCCOC(=O)OCOC(=O)C(C)C  %Compd at 6 h, pH 7.4        84

* * *

Test: Stability and PEA release in 80% v/v rat plasma
Type: in vitro ADME
Conditions: pH 7.4; 80% v/v rat plasma, 37°C, 6 h; read-out: Percent remaining after 6 h incubation in rat plasma
measured quantity: remaining at 6 h, 50 nM (%)

> print(dat)
                                   compound        measured.quantity  reported
1     CCCCCCCCCCCCCCCC(=O)NCCOC(=O)NCC(=O)O  remaining at 6 h, 50 nM        96
2  CCCCCCCCCCCCCCCC(=O)NCCOC(=O)N[C@@H](C)C(=O)O  remaining at 6 h, 50 nM        96
3  CCCCCCCCCCCCCCCC(=O)NCCO [compound 1, Palmitoylethanolamide, reference compound]  remaining at 6 h, 50 nM        70
4  CCCCCCCCCCCCCCCC(=O)N[C@H](C)CO [compound 31, (R)-α-methyl-PEA]  remaining at 6 h, 50 nM        82
5  CCCCCCCCCCCCCCCC(=O)NCCOC(=O)N[C@H](C(=O)O)C(C)C  remaining at 6 h, 50 nM        98

* * *

Experiment: Plasma levels after oral administration to Wistar rats
Type: in vivo, rat
Settings: male, rat, plasma, po; p.o. 145 mg kg-1, Wistar rats, mean ± SEM, n = 9; read-out: Prodrug Conc in plasma, 240 min
Here, each record is paired with measured concentration at 240 min data.
measured quantity: concentration at 240 min (nM)

> print(dat)
                           substance.smiles         measured.quantity  reported
1  CCCCCCCCCCCCCCCC(=O)NCCOC(=O)[C@H](N)C(C)C.Cl  concentration at 240 min      39.9
2  CCCCCCCCCCCCCCCC(=O)NCCOC(=O)[C@@H](N)C(C)C.Cl  concentration at 240 min       7.1

* * *

Assay: Plasma levels after oral administration to Wistar rats
Format: in vivo, rat
Details: male, rat, plasma, po; p.o. 145 mg kg-1, Wistar rats, mean ± SEM, n = 9; read-out: Prodrug Conc in plasma, 60 min
Entries and their concentration at 60 min values follow.
measured quantity: concentration at 60 min

> print(dat)
                           substance.smiles  reported
1  CCCCCCCCCCCCCCCC(=O)NCCOC(=O)[C@@H](N)C(C)C.Cl   35.8 nM
2  CCCCCCCCCCCCCCCC(=O)NCCOC(=O)[C@H](N)C(C)C.Cl   65.9 nM

* * *

Assay: Stability and PEA release in 80% v/v rat plasma
Format: in vitro ADME
Details: rat, 80% v/v rat plasma, pH 7.4, 80% v/v rat plasma, 37°C, 50 nm compound; read-out: Rat Plasma Compd t 1/2
measured quantity: half-life at 50 nM (min)

> print(dat)
                            substance.smiles  display.unit  inequality.symbol  reported
 1  CCCCCCCCCCCCCCCC(=O)NCCOC(=O)[C@@H](N)C(C)C.Cl           min                  =        46
 2  CCCCCCCCCCCCCCCC(=O)NCCOC(=O)[C@@H](N)[C@@H](C)CC.Cl           min                  =       205
 3  CCCCCCCCCCCCCCCC(=O)NCCOC(=O)OCOC(=O)C1CCCCC1           min                  =         5
 4  CCCCCCCCCCCCCCCC(=O)NCCOC(=O)[C@@H](N)CC(=O)O.Cl           min                  =       172
 5  CCCCCCCCCCCCCCCC(=O)N[C@H](C)COC(=O)[C@@H](N)C(C)C.Cl           min                  =       190
 6  CCCCCCCCCCCCCCCC(=O)NCCOC(=O)[C@@H](N)CCC(N)=O.Cl           min                  =        18
 7  CCCCCCCCCCCCCCCC(=O)NCCOC(=O)[C@H](N)CC(N)=O.Cl           min                  =        14
 8  CCCCCCCCCCCCCCCC(=O)NCCOC(=O)OCOC(=O)C(C)C           min                  =       1.1
 9  CCCCCCCCCCCCCCCC(=O)NCCOC(=O)C[C@H](N)C(=O)O.Cl           min                  =       262
10  CCCCCCCCCCCCCCCC(=O)NCCOC(=O)[C@H](N)C(C)C.Cl           min                  =       173
11    CCCCCCCCCCCCCCCC(=O)NCCOC(=O)OCOC(C)=O           min                  <         1

* * *

Assay: Plasma levels after oral administration to Wistar rats
Type: in vivo, rat
Conditions: male, rat, plasma, po; p.o. 145 mg kg-1, Wistar rats, mean ± SEM, n = 9; read-out: Prodrug Conc in plasma, 30 min
measured quantity: concentration at 30 min (nM)

> print(dat)
                           substance.smiles  reported
1  CCCCCCCCCCCCCCCC(=O)NCCOC(=O)[C@H](N)C(C)C.Cl       280
2  CCCCCCCCCCCCCCCC(=O)NCCOC(=O)[C@@H](N)C(C)C.Cl       212
